Target: T1, human KDR-Fc fusion (R&D Systems #357-KD-050) (human, UniProt P35968 20-764)
T1 construct: bought
T1 sequence (P35968 20-764): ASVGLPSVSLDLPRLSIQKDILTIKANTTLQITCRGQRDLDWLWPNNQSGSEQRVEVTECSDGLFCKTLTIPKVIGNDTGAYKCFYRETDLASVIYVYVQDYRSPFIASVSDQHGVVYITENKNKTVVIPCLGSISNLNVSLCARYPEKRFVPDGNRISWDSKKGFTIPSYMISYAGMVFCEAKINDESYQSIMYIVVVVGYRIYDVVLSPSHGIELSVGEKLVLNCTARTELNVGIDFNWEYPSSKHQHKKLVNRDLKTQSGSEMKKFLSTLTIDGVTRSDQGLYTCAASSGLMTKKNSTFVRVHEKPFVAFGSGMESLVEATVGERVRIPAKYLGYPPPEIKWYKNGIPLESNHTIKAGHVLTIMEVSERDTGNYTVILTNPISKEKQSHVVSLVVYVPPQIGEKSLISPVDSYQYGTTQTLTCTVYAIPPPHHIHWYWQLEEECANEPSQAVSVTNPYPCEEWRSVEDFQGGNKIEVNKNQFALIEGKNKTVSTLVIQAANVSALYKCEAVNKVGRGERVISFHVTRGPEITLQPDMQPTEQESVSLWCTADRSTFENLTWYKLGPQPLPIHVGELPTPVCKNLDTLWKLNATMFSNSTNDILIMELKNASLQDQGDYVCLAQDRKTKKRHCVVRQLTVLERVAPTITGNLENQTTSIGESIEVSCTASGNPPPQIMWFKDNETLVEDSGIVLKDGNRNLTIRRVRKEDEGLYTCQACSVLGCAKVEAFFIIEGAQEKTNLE
Experiment: phage binding screen on KDR-Fc; class legend in paragraph 246

| binder | binding result |
| --- | --- |
| RDEWGWTGVPYEGEMGYQIS [phage isolate RDEWGWTGVPYEGEMGYQIS] | binds |
| RGDYQEQYWHQQLVEQLKLL [phage isolate RGDYQEQYWHQQLVEQLKLL] | binds |
| DALEAPKRDWYYDWFLNHSP [phage isolate DALEAPKRDWYYDWFLNHSP] | binds |
| WYHDGLHNERKPPSHWIDNV [phage isolate WYHDGLHNERKPPSHWIDNV] | binds |
| AQMPPWWPLAVDALFDWFE [phage isolate AQMPPWWPLAVDALFDWFE] | binds |
| KKEDAQQWYWTDYVPSYLYR [phage isolate KKEDAQQWYWTDYVPSYLYR] | binds |
| GSDHVRVDNYWWNGMAWEIF [phage isolate GSDHVRVDNYWWNGMAWEIF] | binds |
| DWYYDEILSMADQLRHAFLS [phage isolate DWYYDEILSMADQLRHAFLS] | binds |
| TKWGPNPEHWQYWYSHYASS [phage isolate TKWGPNPEHWQYWYSHYASS] | binds |
| WVTKQQFIDTYGRKEWTILF [phage isolate WVTKQQFIDTYGRKEWTILF] | binds |
| AFPRFGGDDYWIQQYLRYTD [phage isolate AFPRFGGDDYWIQQYLRYTD] | binds |
| EWDAQYWHDLRQQYMLDYIQ [phage isolate EWDAQYWHDLRQQYMLDYIQ] | binds |
